tested on: HEL; assay: Antiviral activity against HEL cells; assay type: functional, Homo sapiens; conditions: Homo sapiens, HEL; read-out: MCC
Please respond with reported MCC for every item in the list.

Look at this compound and give its reported MCC. "Nc1nc2c(ncn2COC(CO)CO)c(=O)[nH]1"
> 100 µg/mL

Look at this compound and give its reported MCC. "O=c1[nH]c(=O)n([C@H]2C[C@H](O)[C@@H](CO)O2)cc1/C=C/Br"
> 400 µg/mL

Look at this compound and give its reported MCC. CN1O[C@H](CO)C[C@@H]1c1cc2ccccc2c2ccccc12 (racemic)
400 µg/mL

Look at this compound and give its reported MCC. "NC(=O)c1ncn([C@@H]2O[C@H](CO)[C@@H](O)[C@H]2O)n1"
> 400 µg/mL

Next:
Look at this compound and give its reported MCC. "Nc1nc2c(ncn2COCCO)c(=O)[nH]1"
> 400 µg/mL
